Target: T1, Human CD19-his protein (human, UniProt P15391 20-291)
T1 construct: bought protein; also called human CD19 protein; recombinant human CD19-His; not shown: His tag
T1 sequence (looked up): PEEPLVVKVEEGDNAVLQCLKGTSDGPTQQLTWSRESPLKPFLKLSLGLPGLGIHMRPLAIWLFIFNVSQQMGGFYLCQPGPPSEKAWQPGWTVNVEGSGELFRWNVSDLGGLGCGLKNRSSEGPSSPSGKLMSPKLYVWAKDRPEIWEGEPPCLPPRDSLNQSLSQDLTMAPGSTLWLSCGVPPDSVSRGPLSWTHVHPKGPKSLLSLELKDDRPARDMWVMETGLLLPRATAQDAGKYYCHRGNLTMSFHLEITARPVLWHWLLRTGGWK
Assay: ELISA on coated human CD19-His
Recorded EC50 (read off the curve), one value per entry.

Binder	EC50 (read off the curve)
F4.4.6 (antibody, human IgG1, V domains shown, human-murine chimeric antibody, human IgG1) VH: QVQLQQSGAELARPGASVKLSCKASGYTFTSYWMQWVKQRPGQGLEWIGAIYPGDGDSRYTQKFKGKATLTADKSSSTAYMQLSSLASEDSAVYYCARSTTTVLGNNFEYWGQGTTLTVSS VL: QIVLTQSPAIMSALPGEKVTMTCSASSSVSSMHWYQQKSGTSPKRWIYDTSKLASGVPARFSGSGSGTSYSLTISSMEAEDAATYYCQQWSSNPWTFGGGTKLEIK	~0.1 nM
F5.2.9 (antibody, human IgG1, V domains shown, human-murine chimeric antibody, human IgG1) VH: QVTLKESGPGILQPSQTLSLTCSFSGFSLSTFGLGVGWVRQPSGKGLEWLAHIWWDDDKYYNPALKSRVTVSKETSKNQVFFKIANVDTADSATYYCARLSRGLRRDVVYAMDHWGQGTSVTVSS VL: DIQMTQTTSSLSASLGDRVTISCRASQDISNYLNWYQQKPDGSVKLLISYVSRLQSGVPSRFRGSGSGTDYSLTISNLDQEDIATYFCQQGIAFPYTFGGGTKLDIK	~0.06 nM
F4.48.12 (antibody, human IgG1, V domains shown, human-murine chimeric antibody, human IgG1) VH: QMQLKESGPGLVAPSQSLSITCTVSGFSLTDYGVSWIRQPPGKGLEWLGVIWGSGSTFYNSALTSRLSISKDNSKSQVFLKMNSLQTADTAMYFCAKHHYYGGSFAMDYWGQGTSVTVSS VL: DIQMTQASSSLSASLGDRVTISCKTSQDISNYLNWYQQKPDGTFKLLIHYTSRLHSGVPSRFSGSGSGSDYSLTISNLEREDIATYFCQQGNSLPYTFGGGTKLEMK	~0.03 nM
F3.133.14 (antibody, human IgG1, V domains shown, human-murine chimeric antibody, human IgG1) VH: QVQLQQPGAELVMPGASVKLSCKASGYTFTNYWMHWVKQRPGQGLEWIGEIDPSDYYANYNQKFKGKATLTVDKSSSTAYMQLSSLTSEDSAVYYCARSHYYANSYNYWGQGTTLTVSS VL: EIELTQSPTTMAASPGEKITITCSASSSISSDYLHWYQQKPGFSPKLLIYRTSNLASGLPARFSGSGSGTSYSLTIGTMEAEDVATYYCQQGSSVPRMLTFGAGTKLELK	~0.2 nM
F4.180.1 (antibody, human IgG1, V domains shown, human-murine chimeric antibody, human IgG1) VH: EVQLQQSAPELVKPGASVKMSCKTSGYTFTENIIHWVKQTHGKSLEWIGGINPDNGGTSYHQKFKGRTTLTIDKSSSTAYMELRSLTSDDSAVFFCARQAPLYWYFDIWGAGTTVTVSS VL: DIVLTQSPASLAVSLGQRATISCRASESVDSYGNSLMHWFQQKPGQPPRLLIYRASNLESGIPARFSGSGSRTDFTLTITPVEADDVATYYCQQSNEDPWTFGGGTKLEIK	~0.2 nM
F1-mab003 (antibody, human IgG1, V domains shown, human-murine chimeric antibody, human IgG1) VH: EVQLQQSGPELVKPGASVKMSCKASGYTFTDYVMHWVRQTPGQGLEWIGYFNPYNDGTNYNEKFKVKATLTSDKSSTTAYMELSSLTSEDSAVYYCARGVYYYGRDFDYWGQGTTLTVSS VL: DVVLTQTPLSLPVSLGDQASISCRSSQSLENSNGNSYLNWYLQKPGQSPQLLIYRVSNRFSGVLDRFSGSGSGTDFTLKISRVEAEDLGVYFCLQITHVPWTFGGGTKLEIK	~0.07 nM
F4.272.13 (antibody, human IgG1, V domains shown, human-murine chimeric antibody, human IgG1) VH: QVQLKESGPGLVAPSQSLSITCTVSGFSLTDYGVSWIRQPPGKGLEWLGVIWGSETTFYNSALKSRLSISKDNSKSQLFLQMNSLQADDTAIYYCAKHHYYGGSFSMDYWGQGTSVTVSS VL: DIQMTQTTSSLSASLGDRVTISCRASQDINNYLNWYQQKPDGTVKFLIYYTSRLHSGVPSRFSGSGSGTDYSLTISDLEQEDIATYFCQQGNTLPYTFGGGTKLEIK	~0.04 nM
F3.121.4 (antibody, human IgG1, V domains shown, human-murine chimeric antibody, human IgG1; also called chimeric antibody F3.121.4) VH: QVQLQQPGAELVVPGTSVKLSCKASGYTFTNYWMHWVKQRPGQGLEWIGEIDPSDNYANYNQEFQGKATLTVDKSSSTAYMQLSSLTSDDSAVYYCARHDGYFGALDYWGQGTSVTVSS VL: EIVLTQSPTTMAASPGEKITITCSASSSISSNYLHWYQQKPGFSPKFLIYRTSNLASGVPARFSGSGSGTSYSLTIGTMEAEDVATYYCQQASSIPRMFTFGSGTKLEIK	~0.1 nM
F4.22.6 (antibody, human IgG1, V domains shown, human-murine chimeric antibody, human IgG1) VH: QVQLQQSGPELVKPGASVKISCKASGYAFSSFWMNWVKQRPGQGLEWIGRIYPGDGDTNYNGKFKGKATLTADKSSTTAYMHLSSLTSVDSAVYFCTRSVITAVVDWYFDVWGAGTTVTVSS VL: QIVLSQSPAILSASPGEKVTLTCRASSSVNFMHWYQQKPGSSPKPWIYATSNLASGAPARFSGSGSGTSYSLTISRVEAEDAAAYYCQQWSSYPIFTFGSGTKLEIK	~0.05 nM
F3.64.4 (antibody, human IgG1, V domains shown, human-murine chimeric antibody, human IgG1) VH: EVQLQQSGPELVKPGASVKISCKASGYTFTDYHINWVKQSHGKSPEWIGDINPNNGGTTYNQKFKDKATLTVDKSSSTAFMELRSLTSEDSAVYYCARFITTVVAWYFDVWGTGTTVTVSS VL: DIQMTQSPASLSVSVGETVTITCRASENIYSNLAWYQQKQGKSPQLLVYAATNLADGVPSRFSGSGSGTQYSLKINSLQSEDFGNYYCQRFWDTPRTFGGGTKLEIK	~0.1 nM
